B1: EHMT1 (parent)
chain: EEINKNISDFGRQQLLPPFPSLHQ

- Variants of: B1
- Protocol summary: protein stability index of a GFP-peptide fusion (GPS, HEK-293T) (PSI 1-6); higher = more stable;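 further: lentivirally expressed fusions sorted by FACS into six bins by GFP to DsRed ratio, PSI derived from sequencing read proportions per bin multiplied by bin number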
- Run parameters: c terminus: a fixed tail appended
Note to self: values exactly at 3 are MET. So protein stability index at or above 3 is MET, below is NOT MET.

Mutation	Class label
R12G	MET
I3C	NOT MET
D9Q	NOT MET
H23Y	NOT MET
F19K	MET

## Input Check if protein stability index >= 3 (inclusive). Item: `Q13A`
## Output MET

## Input Check if protein stability index >= 3 (inclusive). Item: `N4F`
## Output NOT MET

## Input Check if protein stability index >= 3 (inclusive). Item: `D9M`
## Output NOT MET

## Input Check if protein stability index >= 3 (inclusive). Item: `L22C`
## Output MET

## Input Check if protein stability index >= 3 (inclusive). Item: `D9G`
## Output NOT MET

## Input Check if protein stability index >= 3 (inclusive). Item: `P17M`
## Output NOT MET

## Input Check if protein stability index >= 3 (inclusive). Item: `Q24N`
## Output NOT MET

## Input Check if protein stability index >= 3 (inclusive). Item: `E2V`
## Output NOT MET

## Input Check if protein stability index >= 3 (inclusive). Item: `D9N`
## Output NOT MET

## Input Check if protein stability index >= 3 (inclusive). Item: `Q13T`
## Output NOT MET

## Input Check if protein stability index >= 3 (inclusive). Item: `F19C`
## Output MET

## Input Check if protein stability index >= 3 (inclusive). Item: `P20R`
## Output NOT MET
